Target: CyclinE1/CDK2 (Homo sapiens, UniProt P24864)
Construct: purchased Eurofins, discovery 14-475
Test: Fluorescence Polarization (FP) competitive binding assay, Cyclin E1/Cdk2;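 note: readings taken after two-hour equilibration at room temperature in HEPES buffer with NaCl, DTT, NP-40 and BSA, IC50 fitted from eight-concentration serial dilution series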
Details: 10 nM Cyclin E1/Cdk2, 2 nM FAM probe; average of 2-3 independent experiments; read-out: Cyclin E FP IC50
*1 amine or outer side, *2 acyl side, *3 side chain or, on linkers, in order; H or OH if unused. Where a SMILES comes first, the peptide text is derived from it. Bridges are numbered along the chain shown (N, C = ends). [ ]: non-standard residue; d: D form. The star is where a group is joined. NMehhhLys(Me) = CN([C@@H](CCCCCCCN(C)[*:3])C(=O)[*:2])[*:1]; X94 = CN([C@@H](Cc1cc(F)ccc1C1CC1)C(=O)[*:2])[*:1]; cBuCO(3,3-F2-1-CF3) = O=C(C1(C(F)(F)F)CC(F)(F)C1)*; Pro(trans-4-F) = O=C(O)[C@@H]1C[C@@H](F)CN1; Gly(cPr) = N[C@H](C(=O)O)C1CC1
endpointName: IC50 (µM)
Unit µM implied. Number only.

Sample COCCn1cc(-c2ccc(Cl)cc2C[C@H]2C(=O)NCCCCC=CC[C@H](N(C)C(=O)[C@@H](NC(=O)[C@@H]3C[C@@H](F)CN3C(=O)C3(C(F)(F)F)CC(F)(F)C3)C3CC3)C(=O)N[C@@H](CC(C)C)C(=O)N2C)cn1 ; IC50 observed: 0.37

Memo: CC(C)C[C@@H]1NC(=O)[C@@H](N(C)C(=O)[C@@H](NC(=O)[C@@H]2C[C@@H](F)CN2C(=O)C2(C(F)(F)F)CC(F)(F)C2)C2CC2)CC=CCCCCN(C)C(=O)[C@H](Cc2cc(F)ccc2-c2cnn(C3CCOCC3)c2)N(C)C1=O , reported IC50: 0.29

Lab book: IC50 of CC(C)C[C@@H]1NC(=O)[C@@H](N(C)C(=O)[C@@H](NC(=O)[C@@H]2C[C@@H](F)CN2C(=O)C2(C(F)(F)F)CC(F)(F)C2)C2CC2)CC=CCCCCNC(=O)[C@H](Cc2cc(Cl)cnc2OC2CC2)N(C)C1=O (single isomer, unassigned) [Example 102-P1] noted as 1.11

The compound listed as CC(C)C[C@@H]1NC(=O)[C@@H](N(C)C(=O)[C@@H](NC(=O)[C@@H]2C[C@@H](F)CN2C(=O)C2(C(F)(F)F)CC(F)(F)C2)C2CC2)CCCCCCCN(C)C(=O)[C@H](Cc2cc(F)ccc2C2CC2)N(C)C1=O [Example 121] ({cBuCO(3,3-F2-1-CF3)}-[Pro(trans-4-F)][Gly(cPr)][NMehhhLys(Me)]L[X94]; lactam 3-C) has a reported IC50 of 0.13
